Reference source for all entries: ChEMBL document CHEMBL1143363

target: C-C chemokine receptor type 2 (Homo sapiens, UniProt P41597); test: Antagonist activity at CCR2 in human monocytes assessed as inhibition of MCP1-induced calcium influx by FLIPR; type: functional, cell-based
Sequence (P41597 whole entry): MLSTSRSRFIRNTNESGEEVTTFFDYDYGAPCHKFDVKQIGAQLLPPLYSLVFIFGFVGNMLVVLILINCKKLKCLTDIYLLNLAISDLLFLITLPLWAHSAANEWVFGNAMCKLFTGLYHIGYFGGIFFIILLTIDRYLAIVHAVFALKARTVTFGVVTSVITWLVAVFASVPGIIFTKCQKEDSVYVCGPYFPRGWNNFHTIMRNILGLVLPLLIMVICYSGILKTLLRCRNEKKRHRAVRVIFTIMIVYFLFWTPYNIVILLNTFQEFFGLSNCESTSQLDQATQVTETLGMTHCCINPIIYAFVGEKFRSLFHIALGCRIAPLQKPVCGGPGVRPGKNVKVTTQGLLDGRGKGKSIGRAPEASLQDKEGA
experimental_endpoint: IC50 (nM)

| molecule | recorded_value |
| --- | --- |
| CN(C)C1CCC(NC(=O)CNC(=O)c2cccc(C(F)(F)F)c2)C(NCc2cccc(C(F)(F)F)c2)C1 (racemic) | 27 |
| CN(C)C1CCC(NC(=O)CNC(=O)c2cccc(C(F)(F)F)c2)C(NCc2ccc3[nH]ccc3c2)C1 (racemic) | 8 |
| CSc1ccc(C(=O)NC2CCC(NC(C)C)CC2NC(=O)CNC(=O)c2cc(C(F)(F)F)ccc2N)cc1 (racemic) | 2 |
| CSc1ccc(CNC2CC(N(C)C)CCC2NC(=O)CNC(=O)c2cccc(C(F)(F)F)c2)cc1 (racemic) | 6 |
| CC(C)c1ccc(CNC2CC(N(C)C)CCC2NC(=O)CNC(=O)c2cccc(C(F)(F)F)c2)cc1 (racemic) | 19 |

I. CN(C)C1CCC(NC(=O)CNC(=O)c2cccc(C(F)(F)F)c2)C(NCc2ccc(Cl)cc2)C1 (racemic)
II. CSc1ccc(C(=O)NC2CC(NC(=O)OCc3ccccc3)CCC2NC(=O)CNC(=O)c2cccc(C(F)(F)F)c2)cc1 (racemic; form 2)
Problem: Returns: the argument ( I or II ) having the larger IC50. Pick one; state its label.
Result: I
(I: 7 nM, II: 2 nM)

P. Cc1ccc(CNC2CC(N(C)C)CCC2NC(=O)CNC(=O)c2cccc(C(F)(F)F)c2)cc1 (racemic)
Q. COc1ccc(CNC2CC(N(C)C)CCC2NC(=O)CNC(=O)c2cccc(C(F)(F)F)c2)cc1 (racemic)
Problem: // compare: P vs Q , metric IC50, want the smaller I would appreciate it if you answered with the label of your choice.
Result: P
